- SUBJECT OF TEST: tau (Homo sapiens)
- PROCEDURE SUMMARY: MCE Phenols Library screening, tau biosensor cell seeding assay (AvZ)
- Assay type: cell-based
- CONDITION LABEL: raw puncta, replicate 2

# MOLECULE, raw data 2
rows = [
    ("COc1cc(-c2oc3cc(O)cc(O)c3c(=O)c2O[C@@H]2O[C@H](CO[C@@H]3O[C@@H](C)[C@H](O)[C@@H](O)[C@H]3O)[C@@H](O)[C@H](O)[C@H]2O)ccc1O [Narcissin]", 5788.5),
    ("COc1cc(CCO[C@@H]2O[C@H](CO[C@@H]3O[C@H](CO)[C@@H](O)[C@H](O)[C@H]3O)[C@@H](OC(=O)/C=C/c3ccc(O)c(O)c3)[C@H](O[C@@H]3O[C@@H](C)[C@H](O)[C@@H](O)[C@H]3O)[C@H]2O)ccc1O [Cistanoside A]", 7401.19),
    ("Oc1cc(O)cc(/C=C/c2ccc(O)cc2O)c1 [Oxyresveratrol]", 4304.18),
    ("O=c1c(O)c(-c2ccc(O)cc2)oc2cc(O)cc(O)c12 [Kaempferol]", 3116.65),
]

---

- SUBJECT OF TEST: tau (Homo sapiens, UniProt P10636)
- Sequence (P10636 623-695 limits assumed): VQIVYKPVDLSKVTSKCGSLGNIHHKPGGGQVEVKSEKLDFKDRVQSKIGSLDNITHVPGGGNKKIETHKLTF
- PROCEDURE SUMMARY: MCE Phenols Library screening, tau biosensor cell seeding assay (AvZ)
- Format: cell-based
- CONDITION LABEL: puncta, replicate 2

# COMPOUND, SUBJECT OF TEST, raw data 2
rows = [
    ("O=C1CC(C(=O)O)c2c1oc(=O)c1cc(O)c(O)c(O)c21 (stereo not shown) [Brevifolincarboxylic acid]", "tau (Homo sapiens, UniProt P10636)", 1949.4),
    ("O=C(O)[C@H]1O[C@@H](Oc2cc(O)c3c(=O)cc(-c4ccccc4)oc3c2)[C@H](O)[C@@H](O)[C@@H]1O [Chrysin-7-O-glucuronide]", "tau (Homo sapiens, UniProt P10636)", 13544.8),
    ("CC(C)=CC[C@H](OC(=O)C=C(C)C)C1=CC(=O)c2c(O)ccc(O)c2C1=O [?,?-Dimethylacrylalkannin]", "tau (Homo sapiens, UniProt P10636)", 18278.8),
    ("COc1ccc2cc3[n+](cc2c1O)CCc1cc2c(cc1-3)OCO2.[Cl-] [Berberrubine (chloride)]", "tau (Homo sapiens, UniProt P10636)", 10748.8),
]

---

- SUBJECT OF TEST: tau (Homo sapiens, UniProt P10636)
- PROCEDURE SUMMARY: MCE Phenols Library screening, tau biosensor cell seeding assay (AvZ)
- Format: cell-based
- CONDITION LABEL: puncta, replicate 1
Catalogue of raw data 1 readings, one per entry.
TEST READOUT: raw data 1

# COMPOUND, TEST READOUT, RESULT
records = [
    ("C[C@@H]1O[C@@H](OC[C@H]2O[C@@H](OCCc3ccc(O)c(O)c3)[C@H](O)[C@@H](OC(=O)/C=C/c3ccc(O)c(O)c3)[C@@H]2O)[C@H](O)[C@H](O)[C@H]1O [Forsythoside I]", "raw data 1", 13120.4),
    ("COc1ccc(C[C@@H]2c3cc(Oc4cc(C[C@@H]5c6cc(O)c(OC)cc6CCN5C)ccc4O)c(OC)cc3CCN2C)cc1", "raw data 1", 27639.6),
    ("Oc1c(Br)cccc1Br", "raw data 1", 19019.6),
    ("O=C1c2ccccc2C(=O)c2c1cc(O)c(CO)c2O", "raw data 1", 30325.1),
    ("COc1cc(O)c2c(=O)c(O)c(-c3ccc(O)c(O)c3)oc2c1", "raw data 1", 21720.4),
    ("COc1ccc(-c2oc3c(CCC(C)(C)O)c(O[C@@H]4O[C@H](CO)[C@@H](O)[C@H](O)[C@H]4O)cc(O)c3c(=O)c2O)cc1 [Maohuoside A]", "raw data 1", 21773.2),
    ("COc1c(O)c(C)cc2c1C(=O)c1c(O)cccc1C2=O", "raw data 1", 23582.4),
]

---

- SUBJECT OF TEST: tau (Homo sapiens, UniProt P10636)
- PROCEDURE SUMMARY: MCE Phenols Library screening, tau biosensor cell seeding assay (AvZ)
- Format: cell-based
- CONDITION LABEL: Z score, replicate 2
TEST READOUT: Z Repl 2

# COMPOUND, TEST READOUT, RECORDED NUMBER
measured = [
    ("C[C@@H]1O[C@@H](OC[C@H]2O[C@@H](Oc3c(-c4ccc(OCCO)c(OCCO)c4)oc4cc(OCCO)cc(O)c4c3=O)[C@H](O)[C@@H](O)[C@@H]2O)[C@H](O)[C@H](O)[C@H]1O", "Z Repl 2", -0.568),
    ("COc1ccc(-c2coc3cc(O)c(OC)c(O)c3c2=O)cc1", "Z Repl 2", 1.188),
    ("C[C@]12CC[C@@H]3c4ccc(O)cc4CC[C@H]3[C@@H]1C[C@@H](O)[C@@H]2O", "Z Repl 2", 0.639),
    ("COc1ccc(-c2cc(=O)c3c(O)c(OC)c(O[C@@H]4O[C@H](CO[C@@H]5O[C@@H](C)[C@H](O)[C@@H](O)[C@H]5O)[C@@H](O)[C@H](O)[C@H]4O)cc3o2)cc1", "Z Repl 2", -0.144),
    ("O=c1c(O)c(-c2cc(O)c(O)c(O)c2)oc2cc(O)ccc12", "Z Repl 2", -0.831),
    ("COc1cc([C@@H]2Oc3c(O)cc([C@H]4Oc5cc(O)cc(O)c5C(=O)[C@@H]4O)cc3[C@H]2CO)ccc1O", "Z Repl 2", -0.406),
    ("O=C(/C=C/c1ccc(O)cc1)c1ccccc1 [4-Hydroxychalcone]", "Z Repl 2", -0.093),
    ("CCCCCCCCC[C@H](O)CC(=O)CCc1ccc(O)c(OC)c1", "Z Repl 2", -0.318),
    ("O=C(O[C@@H]1O[C@@H]2COC(=O)c3cc(O)c(O)c(O)c3-c3c(cc(O)c(O)c3O)C(=O)O[C@H]([C@H]1O)[C@@H]2O)c1cc(O)c(O)c(O)c1", "Z Repl 2", -1.134),
    ("OCCc1ccccc1", "Z Repl 2", 0.175),
    ("CC(C)=CCc1c(-c2ccc(O)cc2O)oc2c3c(cc(O)c2c1=O)OC(C)(C)C=C3", "Z Repl 2", -0.306),
    ("O=c1ccc2cc(O)c(O)cc2o1", "Z Repl 2", -0.78),
    ("Oc1cc(O)c2ccc(-c3ccc(O)c(O)c3)[o+]c2c1.[Cl-] [Luteolinidin (chloride)]", "Z Repl 2", -1.154),
    ("O=C1C[C@@H](c2ccc(O)c(O)c2)Oc2cc(O[C@@H]3O[C@H](CO)[C@@H](O)[C@H](O)[C@H]3O)cc(O)c21 [Eriodictyol-7-O-glucoside]", "Z Repl 2", 0.417),
    ("OC[C@H]1O[C@@H](Oc2cc(/C=C/c3cc(O)cc(O)c3)ccc2O)[C@H](O)[C@@H](O)[C@@H]1O [Piceatannol 3'-O-glucoside]", "Z Repl 2", 0.408),
    ("COc1ccc(-c2cc(=O)c3c(O)cc(O)cc3o2)cc1", "Z Repl 2", -0.222),
    ("O=C([O-])C(O)Cc1ccc(O)c(O)c1.[Na+] (stereo not shown) [Danshensu (sodium salt)]", "Z Repl 2", -0.817),
    ("COc1cc(O)c2c(=O)c(O)c(-c3ccc(O)c(O)c3)oc2c1", "Z Repl 2", 0.151),
    ("COc1ccc2cc3[n+](cc2c1OC)CCc1cc(O)c(O)cc1-3", "Z Repl 2", -0.204),
    ("O=C(CCCCCCCCc1ccc(O)c(O)c1)c1c(O)cccc1O", "Z Repl 2", 0.189),
    ("COc1c(/C=C/C(=O)c2ccc(O)c(CC=C(C)C)c2)ccc(O)c1O", "Z Repl 2", 0.907),
    ("C[C@@H]1CC(=O)c2c(ccc3c2C(=O)c2cccc(O)c2C3=O)C1", "Z Repl 2", -0.213),
    ("O=c1c(-c2ccc(O)c(O)c2)coc2c([C@@H]3O[C@H](CO)[C@@H](O)[C@H](O)[C@H]3O)c(O)ccc12 [3'-Hydroxypuerarin]", "Z Repl 2", -0.346),
    ("COc1cc(CCN)ccc1O", "Z Repl 2", -0.661),
    ("COC(=O)/C=C/c1ccc(O)c(O)c1 [Methyl caffeate]", "Z Repl 2", -0.284),
    ("COc1cc(O)cc(/C=C/c2ccc(O)cc2)c1", "Z Repl 2", -0.704),
    ("COc1ccc2c(c1OC)O[C@H]1c3ccc(O)cc3OC[C@@H]21", "Z Repl 2", -1.004),
    ("COc1ccc(-c2cc(=O)c3c(O)cc(O)c(-c4cc(-c5cc(=O)c6c(O)cc(OC)cc6o5)ccc4OC)c3o2)cc1", "Z Repl 2", 0.543),
    ("CC(=O)O[C@@H](CC=C(C)C)C1=CC(=O)c2c(O)ccc(O)c2C1=O", "Z Repl 2", -0.292),
    ("C[C@@H]1O[C@@H](Oc2cc(O)c3c(=O)c(O[C@@H]4O[C@@H](C)[C@H](O)[C@@H](O)[C@H]4O)c(-c4ccc(O)cc4)oc3c2)[C@H](O)[C@H](O)[C@H]1O", "Z Repl 2", -0.446),
    ("O=C1c2c(O)cc(O)cc2O[C@H](c2cc(O)c(O)c(O)c2)[C@H]1O [Dihydromyricetin]", "Z Repl 2", -0.885),
]
